assay: In vivo pharmacokinetics in female BALB/c mice; set-up: species or system mouse; details: mouse, plasma, iv, 1 mg/kg intravenously, read-out: Cl iv

>  <SMILES CODE>
O=C1CCc2cc(NC(=O)c3scnc3-c3cccc(F)c3)ccc2N1

>  <clearance / mL/min/kg>
22.1

$$$$

* * *

Entries annotated with measured IC50
Target: ALDH1A2 (Homo sapiens, UniProt O94788)
Sequence (O94788 1-518): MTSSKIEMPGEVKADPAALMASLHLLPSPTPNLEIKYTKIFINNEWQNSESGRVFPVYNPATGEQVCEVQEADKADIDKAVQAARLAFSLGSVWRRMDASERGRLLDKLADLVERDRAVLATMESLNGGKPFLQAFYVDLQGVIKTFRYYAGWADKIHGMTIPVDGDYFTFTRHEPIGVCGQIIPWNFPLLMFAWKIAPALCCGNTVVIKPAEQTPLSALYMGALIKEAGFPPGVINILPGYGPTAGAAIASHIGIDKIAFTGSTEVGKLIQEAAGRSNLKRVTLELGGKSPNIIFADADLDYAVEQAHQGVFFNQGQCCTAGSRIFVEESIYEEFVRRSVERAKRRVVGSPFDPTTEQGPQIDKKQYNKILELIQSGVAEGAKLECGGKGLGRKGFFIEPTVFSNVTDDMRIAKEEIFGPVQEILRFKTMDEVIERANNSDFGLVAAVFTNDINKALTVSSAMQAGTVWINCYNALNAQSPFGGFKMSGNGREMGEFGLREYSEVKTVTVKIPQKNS

>  <COMPOUND>
O=C1CCc2cc(OCCN3CCCC3c3ccc(F)c(F)c3)ccc2N1 (stereo not drawn)

>  <MEASURED TARGET>
ALDH1A2 (Homo sapiens, UniProt O94788)

>  <IC50>
1000 to 10000 nM

$$$$
>  <COMPOUND>
CC1(c2cccc(F)c2)CCCN1CCOc1ccc2c(c1)CCC(=O)N2 (stereo not drawn)

>  <MEASURED TARGET>
ALDH1A2 (Homo sapiens, UniProt O94788)

>  <IC50>
100 to 1000 nM

$$$$
>  <COMPOUND>
CC1(c2ccccc2)COCCN1CCOc1ccc2c(c1)CCC(=O)N2 (stereo not drawn)

>  <MEASURED TARGET>
ALDH1A2 (Homo sapiens, UniProt O94788)

>  <IC50>
100 to 1000 nM

$$$$
>  <COMPOUND>
CCN(CC)CCN(CCOc1ccc2c(c1)CCC(=O)N2)Cc1ccccc1

>  <MEASURED TARGET>
ALDH1A2 (Homo sapiens, UniProt O94788)

>  <IC50>
1000 to 10000 nM

$$$$
>  <COMPOUND>
O=C1CCc2cc(OCCN3CCCC3c3cc(F)cc(F)c3)ccc2N1 (stereo not drawn)

>  <MEASURED TARGET>
ALDH1A2 (Homo sapiens, UniProt O94788)

>  <IC50>
100 to 1000 nM

$$$$
>  <COMPOUND>
O=C1CSc2cc(OCCN3CCCC3c3cccc(F)c3)ccc2N1 (stereo not drawn)

>  <MEASURED TARGET>
ALDH1A2 (Homo sapiens, UniProt O94788)

>  <IC50>
10000 to 100000 nM

$$$$
>  <COMPOUND>
CC1(C)Oc2cc(OCCN3CCCC3c3cccc(F)c3)ccc2NC1=O (stereo not drawn)

>  <MEASURED TARGET>
ALDH1A2 (Homo sapiens, UniProt O94788)

>  <IC50>
1000 to 10000 nM

$$$$
>  <COMPOUND>
O=C1CCc2cc(OCCN3CCCCC3c3cccc(F)c3)ccc2N1 (stereo not drawn)

>  <MEASURED TARGET>
ALDH1A2 (Homo sapiens, UniProt O94788)

>  <IC50>
1000 to 10000 nM

$$$$
>  <COMPOUND>
O=C1CCc2cc(OCCN(CCO)Cc3cccc(F)c3)ccc2N1

>  <MEASURED TARGET>
ALDH1A2 (Homo sapiens, UniProt O94788)

>  <IC50>
100 to 1000 nM

$$$$

Every entry's value here was drawn from patent US20240174634A1.
